Cited source for all entries: paper PMC4980077

- target-of-assay: full-length PKA-RIβ regulatory subunit dimer (UniProt P31321 1-381)
- Sequence (P31321 whole entry): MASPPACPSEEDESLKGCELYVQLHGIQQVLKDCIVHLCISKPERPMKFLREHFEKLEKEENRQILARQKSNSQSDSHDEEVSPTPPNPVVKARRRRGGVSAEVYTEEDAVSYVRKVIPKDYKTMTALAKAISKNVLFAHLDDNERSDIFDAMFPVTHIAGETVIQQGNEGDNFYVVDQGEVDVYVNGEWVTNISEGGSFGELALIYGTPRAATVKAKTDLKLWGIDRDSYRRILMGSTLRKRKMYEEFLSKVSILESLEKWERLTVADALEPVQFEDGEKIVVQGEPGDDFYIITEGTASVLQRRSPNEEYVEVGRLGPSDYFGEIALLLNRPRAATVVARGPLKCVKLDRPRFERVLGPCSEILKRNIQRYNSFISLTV
- procedure-summary: fluorescence polarisation
Square brackets hold non-standard residues; d marks the D form. Ends that are not written are not given here. * marks the point of attachment. 5‑TAMRA = CN(C)c1ccc2c(-c3ccc(C(=O)*)cc3C(=O)[O-])c3ccc(N(C)C)cc3[o+]c2c1; pS = N[C@@H](COP(=O)(O)O)C(=O)O
measured-parameter: Kd

Note down Kd recorded for {5‑TAMRA}-IVILEYAHRL[pS]QDILCDALQQWAC (cysteine pairing not given here) [phosphorylated smAKAP-AKB domain peptide (pSer66), tagged with 5-TAMRA]
> 500 nM
